Cited source: paper PMC3420979

SUBJECT_OF_TEST: CpCDPK1 (Cryptosporidium parvum)
Sequence (A3FQ16 1-538): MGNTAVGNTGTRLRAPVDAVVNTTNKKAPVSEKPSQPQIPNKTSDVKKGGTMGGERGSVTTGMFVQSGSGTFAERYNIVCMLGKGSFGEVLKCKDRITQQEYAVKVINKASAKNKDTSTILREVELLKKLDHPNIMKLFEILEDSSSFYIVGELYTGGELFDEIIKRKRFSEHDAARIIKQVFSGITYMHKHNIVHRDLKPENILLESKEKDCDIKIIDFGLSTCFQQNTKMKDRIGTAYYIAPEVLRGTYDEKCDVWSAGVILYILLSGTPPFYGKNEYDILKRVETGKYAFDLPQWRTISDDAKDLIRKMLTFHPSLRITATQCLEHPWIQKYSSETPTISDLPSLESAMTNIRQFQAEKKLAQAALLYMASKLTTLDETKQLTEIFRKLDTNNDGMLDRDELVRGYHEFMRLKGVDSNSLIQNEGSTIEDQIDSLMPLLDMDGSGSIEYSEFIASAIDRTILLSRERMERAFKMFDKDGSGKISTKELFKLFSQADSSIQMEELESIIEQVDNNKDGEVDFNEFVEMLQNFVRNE
TEST_NAME: Enzyme inhibition assay, CpCDPK1
Assay type: biochemical
RECORDED_CONDITIONS: IC50 against CpCDPK1 (nM), stated for both parasite CDPK1s
QUANTITY_NAME: IC50

STRUCTURE_STRING	DATA_VALUE
CN1CCN(CCn2c(N)nc3ccc(C(=O)c4ccccc4)cc32)CC1	< 50 nM

Now for another entry.
Problem: Look up and report measured IC50 for this entry: Nc1nc2ccc(C(=O)c3ccccc3)cc2n1CCC1CCNCC1
Result: < 50 nM
